Data origin: the supplement of paper PMC8007513

Test system: Trichoderma virens ATCC 9645
Assay: growth yield (OD600) with compound + IPBC relative to untreated control; higher = less growth inhibition
Settings: compound concentration: 100 uM; IPBC concentration: 200 ng/ml; 40 h
Counter-ions that a name gives are not always drawn. About 130 (10%) of roughly 1,300 compounds showed an effect of 50% or more. Only a selection was taken, and strong results are over-represented in it overall.
The following ranges of growth yield define the classes used here: Low (below 30%), Mid (30% to below 90%), High (90% or more)

- O=c1[nH]c(=O)n([C@H]2C[C@H](O)[C@@H](CO)O2)cc1F [Floxuridine] + CCCCNC(=O)OCC#CI [3-iodo-2-propynyl butylcarbamate (IPBC)]: Low
- C(=C\c1ccccc1)/CN1CCN(C(c2ccccc2)c2ccccc2)CC1 [Cinnarizine] + CCCCNC(=O)OCC#CI [3-iodo-2-propynyl butylcarbamate (IPBC)]: Mid
- COc1ccc(CN2CCN(C(c3ccc(F)cc3)c3ccc(F)cc3)CC2)c(OC)c1OC [Lomerizine hydrochloride] + CCCCNC(=O)OCC#CI [3-iodo-2-propynyl butylcarbamate (IPBC)]: Mid
- Clc1ccc(COC(Cn2ccnc2)c2ccc(Cl)cc2Cl)c(Cl)c1 (stereo not given) [Miconazole] + CCCCNC(=O)OCC#CI [3-iodo-2-propynyl butylcarbamate (IPBC)]: Low
- CCOC(=O)[C@H](CCc1ccccc1)N[C@@H](C)C(=O)N1[C@H](C(=O)O)C[C@@H]2CCC[C@@H]21 [Ramipril] + CCCCNC(=O)OCC#CI [3-iodo-2-propynyl butylcarbamate (IPBC)]: High
- Fc1ccc(C(c2ccc(F)cc2)N2CCN(C/C=C/c3ccccc3)CC2)cc1 [Flunarizine dihydrochloride] + CCCCNC(=O)OCC#CI [3-iodo-2-propynyl butylcarbamate (IPBC)]: Low
- C[C@]12CC[C@H]3C(=CCc4cc(O)ccc43)[C@@H]1CCC2=O [Equilin] + CCCCNC(=O)OCC#CI [3-iodo-2-propynyl butylcarbamate (IPBC)]: Mid
- Clc1ccc(CO/N=C(\Cn2ccnc2)c2ccc(Cl)cc2Cl)c(Cl)c1 [Oxiconazole Nitrate] + CCCCNC(=O)OCC#CI [3-iodo-2-propynyl butylcarbamate (IPBC)]: Low
- C=CCOC(Cn1ccnc1)c1ccc(Cl)cc1Cl (stereo not given) [Enilconazole] + CCCCNC(=O)OCC#CI [3-iodo-2-propynyl butylcarbamate (IPBC)]: Low
- O=C(O)CN(CCN(CC(=O)O)CC(=O)O)CCN(CC(=O)O)CC(=O)O [Pentetic acid] + CCCCNC(=O)OCC#CI [3-iodo-2-propynyl butylcarbamate (IPBC)]: Low
- CN1CCOC(c2ccccc2)c2ccccc2C1 (stereo not given) [Nefopam hydrochloride] + CCCCNC(=O)OCC#CI [3-iodo-2-propynyl butylcarbamate (IPBC)]: Mid
- CCN(CC)CCNc1ccc(CO)c2sc3ccccc3c(=O)c12 [Hycanthone] + CCCCNC(=O)OCC#CI [3-iodo-2-propynyl butylcarbamate (IPBC)]: High
- COC(=O)[C@@H]1[C@H]2C[C@H]3c4[nH]c5ccccc5c4CCN3C[C@@H]2CC[C@@H]1O [Yohimbine hydrochloride] + CCCCNC(=O)OCC#CI [3-iodo-2-propynyl butylcarbamate (IPBC)]: Mid
- CC(N/C(=N\C#N)Nc1ccncc1)C(C)(C)C (stereo not given) [Pinacidil] + CCCCNC(=O)OCC#CI [3-iodo-2-propynyl butylcarbamate (IPBC)]: High
- CN1CCN(C(c2ccccc2)c2ccccc2)CC1 [Cyclizine hydrochloride] + CCCCNC(=O)OCC#CI [3-iodo-2-propynyl butylcarbamate (IPBC)]: Mid
- CC(C)(C#N)c1cc(Cn2cncn2)cc(C(C)(C)C#N)c1 [Anastrozole] + CCCCNC(=O)OCC#CI [3-iodo-2-propynyl butylcarbamate (IPBC)]: High
- CC1(C)O[C@@H]2C[C@H]3[C@@H]4CCC5=CC(=O)C=C[C@]5(C)[C@H]4[C@@H](O)C[C@]3(C)[C@]2(C(=O)CO)O1 [Desonide] + CCCCNC(=O)OCC#CI [3-iodo-2-propynyl butylcarbamate (IPBC)]: High
